Assay: Physicochemical properties of naloxegol
Details: Experimental data
Quantity name: pKa
The response must contain the number and no unit.

Query :: Which pKa reading was recorded for the molecule `C=CCN1CC[C@]23c4c5ccc(O)c4O[C@H]2[C@@H](OCCOCCOCCOCCOCCOCCOCCOC)CC[C@@]3(O)[C@H]1C5` ?
Result :: 8.45

* * *

Assay: Naloxegol blood/plasma, microsomal and gut binding inputs
Type: in vitro ADME
Conditions: plasma
Quantity name: fraction unbound
Just the number.

Query :: Please report the recorded fraction unbound for `C=CCN1CC[C@]23c4c5ccc(O)c4O[C@H]2[C@@H](OCCOCCOCCOCCOCCOCCOCCOC)CC[C@@]3(O)[C@H]1C5` .
Result :: 0.958
